B1: Azoarcus group I ribozyme (parent)
chain: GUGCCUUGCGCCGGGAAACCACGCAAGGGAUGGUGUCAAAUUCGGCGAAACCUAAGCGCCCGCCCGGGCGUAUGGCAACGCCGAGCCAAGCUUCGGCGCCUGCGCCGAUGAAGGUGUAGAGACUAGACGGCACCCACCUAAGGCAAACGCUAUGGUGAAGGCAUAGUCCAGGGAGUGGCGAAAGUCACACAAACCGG

# Variants of: B1
# experiment-summary: reverse-splicing fitness (ratio to wild type); higher = more active; in vitro selection; Mg2+ level not given
observable: reverse-splicing fitness
Numbers only.

As a guide, the following entries are already answered.
* A145G C150A C169G U176C | 0.0517
* C82A A111C A145C C150A C169U U176C | 0.0109
* C82G A111C A120G A145U C169A U176A | 0.0115
* A111G A120C A145U C150U C169G U176A | 0.014
* C82A A145U C150A C169U U176A | 0.0139

Hey, quick one: what's reverse-splicing fitness for each of these?
1. A111C A145U C169G U176C
2. C82G A111U A120U A145G C150U C169G

Result:
1. 0.0264
2. 0.00641

Go through the list and state reverse-splicing fitness for each entry.
1. C82G A111G A120C A145G C150A
2. C82A A111G A120U A145U C150A U176A
3. C82U A111C A145G C150U C169G U176A
4. A120G A145G C169U U176C
5. A120U A145C C150U C169A U176A

Result:
1. 0.0184
2. 0.00478
3. 0.0107
4. 0.199
5. 0.00179

Hi! Can you tell me reverse-splicing fitness for each of these variants?
1. C82A A111C A120G A145C C150G U176G
2. A111G C150U U176A
3. C82U A120U A145C C150U C169G U176G
4. A111C A120G C150U C169U U176A
5. A111U A120G A145C
6. C82G A145U C150A C169A U176G
7. A111U A145U C150G U176G
8. C82G A111C A145U C150G C169A U176G

Result:
1. 0.00311
2. 0.686
3. 0.00153
4. 0.0337
5. 0.159
6. 0.00561
7. 0.025
8. 0.00734

For each of the items listed, what is its reverse-splicing fitness?
1. C82A A111C A145C C150G C169G U176A
2. C82G A111G A145C C150A U176G

Result:
[0.00778, 0.00955]

Origin of measurements: the RNAGym collection of RNA variant scans (doi:10.1093/molbev/msab373)
